# Tested on: PfAP2-LT AP2 domain (GST-tagged)
# ASSAY TEXT: gcPBM binding intensity (ln(normalized median fluorescence intensity)); higher = stronger DNA binding
In all, about 25,000 sequences were measured (“ln(normalized median fluorescence intensity)”: median about 8.9, highest 2% from about 10 on). This excerpt belongs to a sample that is enriched for the highest values.
Short version: gcPBM binding intensity (ln) at least 9 is yes (1), less is no (0).

[[record]]
chain_sequence = "AAAAAAAAAAAAAAAACACACAATTGAATTATTAAG [CACACA_site2864]"
discrete_label = "no (0)"

[[record]]
chain_sequence = "TATATATATATAGACACACACACACCCATATATATA [CACACA_site4117]"
discrete_label = "yes (1)"

[[record]]
chain_sequence = "TACATACATACATACACACACACATATAAATACATA [CACACA_site4626]"
discrete_label = "yes (1)"

[[record]]
chain_sequence = "CGCATACACAGACACACACACACATATAAATATGTA [CACACA_site6444]"
discrete_label = "yes (1)"

[[record]]
chain_sequence = "AAATGCGCCATGTGTACACATATATATATATATATA [CACACA_site4649]"
discrete_label = "yes (1)"

[[record]]
chain_sequence = "CTAAAATACAGACACACACACACATATATATATATA [CACACA_site4150]"
discrete_label = "yes (1)"

[[record]]
chain_sequence = "TTAGTTATTAAAAAAAGTACATAAGTAGATATCATC [XGTACX_site8712]"
discrete_label = "no (0)"

[[record]]
chain_sequence = "GTAAATACACATATGTGTACATATATATATATATAT [XGTACX_site3696]"
discrete_label = "yes (1)"

[[record]]
chain_sequence = "GATATGTACTAATACACACACATATATATATATATA [CACACA_site1022]"
discrete_label = "yes (1)"

[[record]]
chain_sequence = "CACACGCACAGACACACACACACATATAAATATGTA [CACACA_site6300]"
discrete_label = "yes (1)"

[[record]]
chain_sequence = "TTTTCTTCATAAATGCTGCACTGGTTTAAGCATGAT"
discrete_label = "no (0)"

[[record]]
chain_sequence = "AAGATATGTACTAATACACACACATATATATATATA [CACACA_site8249]"
discrete_label = "yes (1)"

[[record]]
chain_sequence = "ATATATATATATATATGTACACACATCAATCATATT [XGTACX_site4005]"
discrete_label = "yes (1)"

[[record]]
chain_sequence = "AAAAAAAAAAAACACACACACATAGACCTCCAATAG [CACACA_site3562]"
discrete_label = "yes (1)"

[[record]]
chain_sequence = "GTTAATTATTAAATTTGTACTCATATATATTATATA [XGTACX_site6862]"
discrete_label = "no (0)"

[[record]]
chain_sequence = "TCTCCTTGTTCCTTTTTTTTAAAAAAAAACATTAAA [CACACA_negctrl_site679]"
discrete_label = "no (0)"

[[record]]
chain_sequence = "TCTTTTTAACAAAAAAAAAAAAAAAAAAAAAAATTA [CACACA_negctrl_site1637]"
discrete_label = "no (0)"

[[record]]
chain_sequence = "ATAAATACAGATAACACACACATATATATATATATA [CACACA_site5431]"
discrete_label = "yes (1)"

[[record]]
chain_sequence = "TTGTTTCCGATGAAAGAAAGGAAATTATAATATATC [GTGCAC_negctrl_site516]"
discrete_label = "no (0)"

[[record]]
chain_sequence = "ATTTAATACAAATACACACACAAATAAATACAGATA [CACACA_site5956]"
discrete_label = "yes (1)"

[[record]]
chain_sequence = "AAAAAATGCGACATGTGTACACATATATATATATAT [XGTACX_site1679]"
discrete_label = "yes (1)"

[[record]]
chain_sequence = "TATAAATACAGATACACACACACACCGATATATATA [CACACA_site5271]"
discrete_label = "yes (1)"

[[record]]
chain_sequence = "AATAAATATATAAATACACACAAACATACAGATATA [CACACA_site6088]"
discrete_label = "yes (1)"

[[record]]
chain_sequence = "AAAAAAAAAAGACACACACACATAGACCTCCAATAG [CACACA_site7646]"
discrete_label = "yes (1)"

[[record]]
chain_sequence = "CATATATAAATATATACACACATACATACATACATA [CACACA_site5988]"
discrete_label = "yes (1)"

[[record]]
chain_sequence = "TTTAAATACAGACATACACACATACACGCACATATA [CACACA_site6400]"
discrete_label = "yes (1)"

[[record]]
chain_sequence = "CACGCATACAGACACACACACACACGGATATAAATA [CACACA_site6445]"
discrete_label = "yes (1)"


---

# System: PfAP2-LT AP2 domain (GST-tagged)
# ASSAY TEXT: gcPBM binding intensity (ln(normalized median fluorescence intensity)); higher = stronger DNA binding
Over roughly 25,000 sequences, “ln(normalized median fluorescence intensity)” has its median near 8.9; the highest 2% begin near 10. The list comes from a sample in which the highest values are over-represented; it also holds close analogues and randomly drawn sequences.
Documented gcPBM binding intensity (ln) across a set of sequences
READOUT: gcPBM binding intensity (ln)

[[record]]
chain_sequence = "TTAAAAAAATATAATACACACCAAAAATATGCACAT [CACACA_site5209]"
readout = "gcPBM binding intensity (ln)"
measured = 9.03

[[record]]
chain_sequence = "GTTACATACAGATACACACACATATATATATATATA [CACACA_site4652]"
readout = "gcPBM binding intensity (ln)"
measured = 10.2

[[record]]
chain_sequence = "TGGGAAAAAATATATGCACACCCCCCAAAAAAAAAA [CACACA_site8696]"
readout = "gcPBM binding intensity (ln)"
measured = 10.5

[[record]]
chain_sequence = "GTTACATACATATACACACACATATATATATATATA [CACACA_site901]"
readout = "gcPBM binding intensity (ln)"
measured = 10.2

[[record]]
chain_sequence = "ATAAATAAAATATGCACACAAATATAGGAAACAACA [CACACA_site2561]"
readout = "gcPBM binding intensity (ln)"
measured = 9.38

[[record]]
chain_sequence = "TTTGAACATTTTGCAAGTACAAAAAAATAATATATC [XGTACX_site8079]"
readout = "gcPBM binding intensity (ln)"
measured = 8.65

[[record]]
chain_sequence = "AAAAAAAAAAAACACACACACACACCGATACATACA [CACACA_site8849]"
readout = "gcPBM binding intensity (ln)"
measured = 10.4

[[record]]
chain_sequence = "GGAAAAAATATATGCACACCCCCCAAAAAAAAAAAA [CACACA_site2222]"
readout = "gcPBM binding intensity (ln)"
measured = 10.5

[[record]]
chain_sequence = "TATACATACATACATACACACACACCGATATATACA [CACACA_site8184]"
readout = "gcPBM binding intensity (ln)"
measured = 9.89

[[record]]
chain_sequence = "ATTTATATATTGCCCACACACATGTGATTATTTATA [CACACA_site1714]"
readout = "gcPBM binding intensity (ln)"
measured = 9.28

[[record]]
chain_sequence = "AAAATATATGAAAACAGTACATATAAAAATTAAAAA [XGTACX_site2594]"
readout = "gcPBM binding intensity (ln)"
measured = 8.75

[[record]]
chain_sequence = "ACGTTACATACATATACACACACATATATATATATA [CACACA_site8203]"
readout = "gcPBM binding intensity (ln)"
measured = 9.93

[[record]]
chain_sequence = "AAAAAAAAAAAACACACACACACACCGAAATATATA [CACACA_site4261]"
readout = "gcPBM binding intensity (ln)"
measured = 9.99

[[record]]
chain_sequence = "AAAAAAAATATATATGCACACACAAAAAAACAAATT [CACACA_site8349]"
readout = "gcPBM binding intensity (ln)"
measured = 9.48

[[record]]
chain_sequence = "AGCCTCGGGGTCATATATATATATATATATATATAT [CACACA_negctrl_site512]"
readout = "gcPBM binding intensity (ln)"
measured = 10.3

[[record]]
chain_sequence = "TATATATATATATACACACACACACCGATATATATA [CACACA_site8813]"
readout = "gcPBM binding intensity (ln)"
measured = 10

[[record]]
chain_sequence = "CATACATACAAACACACACACACACCGATATATATA [CACACA_site8952]"
readout = "gcPBM binding intensity (ln)"
measured = 10.3

[[record]]
chain_sequence = "TATATATACATATACACACACACACCGATATATATA [CACACA_site8706]"
readout = "gcPBM binding intensity (ln)"
measured = 9.9

[[record]]
chain_sequence = "CTATATAATATGAGCACACATAAGATTTGGTGTTAT [CACACA_site744]"
readout = "gcPBM binding intensity (ln)"
measured = 8.93

